system: RARg homodimer (NR concentration 270 nM); experiment: PBM binding z-score (relative to random genomic background probes); higher = stronger binding; sequences stand for … in GC…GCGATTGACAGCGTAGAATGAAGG
assay-readout: PBM binding z-score

Previously resolved entries follow.
ordered-residues	measured-result
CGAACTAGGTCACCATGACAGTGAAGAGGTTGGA	5.26
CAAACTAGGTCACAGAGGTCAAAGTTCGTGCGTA	7.81
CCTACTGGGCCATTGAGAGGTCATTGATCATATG	2.63
TCTGCTATGTCAACGATGGTCAGCTAATCTGCTA	0.346
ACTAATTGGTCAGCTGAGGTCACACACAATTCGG	4.46
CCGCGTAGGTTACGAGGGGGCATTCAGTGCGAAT	2.15
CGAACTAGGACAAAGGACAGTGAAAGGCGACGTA	1.24
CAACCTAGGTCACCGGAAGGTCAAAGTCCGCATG	8.03

From here, focus on the item given below.
Query string: What reported PBM binding z-score corresponds to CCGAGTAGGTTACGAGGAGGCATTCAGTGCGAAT on RARg homodimer (NR concentration 270 nM)?
Result string: 0.522
